# Measurement target: Human neutrophil elastase (Homo sapiens (Human), UniProt P08246)
# Sequence (P08246 30-247): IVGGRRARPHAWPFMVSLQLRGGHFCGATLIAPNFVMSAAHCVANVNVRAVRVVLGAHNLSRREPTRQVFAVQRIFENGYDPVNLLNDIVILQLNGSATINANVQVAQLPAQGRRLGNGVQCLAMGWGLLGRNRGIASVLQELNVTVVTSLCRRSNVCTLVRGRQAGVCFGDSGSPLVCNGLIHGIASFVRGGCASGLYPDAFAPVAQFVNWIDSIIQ
# Assay comment: Human Neutrophil Elastase Assay
# Test settings: substrate MeOSuc-Ala-Ala-Pro-Val-AMC 250 μM, pH 7.5
Readout name: IC50 (nM)
Answers are plain numbers, in nM.

Please give IC50 for each item listed below.
1. COc1ccc(-c2cc(C#N)ccc2C2C3=C(CCC3=O)N(c3cccc(C(F)(F)F)c3)C(=O)N2C)cn1 (stereo not shown)
2. CN1C(=O)N(c2cccc(C(F)(F)F)c2)C2=C(C(=O)CC2)C1c1ccc(C#N)cc1C(=O)NCc1ccco1 (stereo not shown)
3. CN1C(=O)N(c2cccc(C(F)(F)F)c2)C2=C(C(=O)CC2)C1c1ccc(C#N)cc1-c1cncnc1 (stereo not shown)

1. 3.9
2. 2.2
3. 1.3

---

# Measurement target: Human neutrophil elastase (Homo sapiens (Human))
# Assay comment: Human Neutrophil Elastase Assay
# Test settings: substrate MeOSuc-Ala-Ala-Pro-Val-AMC 250 μM, pH 7.5
Provide the reported pIC50 of each item.
Give bare numbers, as −log10 of the molar value.

Please review the entries below; each comes with its answer.
# Compound, Measurement target, pIC50
records = [
    ("CN1C(=O)N(c2ccnc(C(F)(F)F)c2)C2=C(C(=O)CC2)C1c1ccc(C#N)cc1C(=O)N1CCOCC1 (stereo not shown)", "Human neutrophil elastase (Homo sapiens (Human))", 7.15),
    ("CN1C(=O)N(c2cccc(C(F)(F)F)c2)C2=C(C(=O)CC2)C1c1ccc(C#N)cc1C(=O)NCc1cnn(C)c1 (stereo not shown)", "Human neutrophil elastase (Homo sapiens (Human))", 8.32),
    ("CN1C(=O)N(c2cccc(C(F)(F)F)c2)C2=C(C(=O)CC2)C1c1ccc(C#N)cc1-c1nnco1 (stereo not shown)", "Human neutrophil elastase (Homo sapiens (Human))", 8.68),
    ("CN1C(=O)N(c2cccc(C(F)(F)F)c2)C2=C(C(=O)CC2)C1c1ccc(C#N)cc1C(=O)NCCN1CCOCC1 (stereo not shown)", "Human neutrophil elastase (Homo sapiens (Human))", 8.35),
    ("CN(C)CCN(C)C(=O)c1cc(C#N)ccc1C1C2=C(CCC2=O)N(c2cccc(C(F)(F)F)c2)C(=O)N1C (stereo not shown)", "Human neutrophil elastase (Homo sapiens (Human))", 8.89),
    ("CN1C(=O)N(c2ccnc(C(F)(F)F)c2)C2=C(C(=O)CC2)C1c1ccc(C#N)cc1-c1ccoc1 (stereo not shown)", "Human neutrophil elastase (Homo sapiens (Human))", 7.95),
]

Next item in the queue.
So what's the measured pIC50 for this one? CN1C(=O)N(c2cccc(C(F)(F)F)c2)C2=C(C(=O)CC2)C1c1ccc(C#N)cc1-c1ccc2c(ccn2C)c1 (stereo not shown)
8.22

---

# Measurement target: Human neutrophil elastase (Homo sapiens (Human), UniProt P08246)
# Assay comment: Human Neutrophil Elastase Assay
# Test settings: substrate MeOSuc-Ala-Ala-Pro-Val-AMC 250 μM, pH 7.5
Readout name: pIC50
One number for each entry, as −log10 of the molar value.

Please review the entries below; each comes with its answer.
# Compound, Result value
measured = [
    ("CN1C(=O)N(c2cccc(C(F)(F)F)c2)C2=C(C(=O)CCC2)C1c1ccc(C#N)cc1-c1ccn(C)c(=O)c1 (stereo not drawn)", 8.92),
    ("CN1C(=O)N(c2cccc(C(F)(F)F)c2)C2=C(C(=O)CCC2)C1c1ccc(C#N)cc1-c1ccoc1 (stereo not drawn)", 8.49),
    ("CN1C(=O)N(c2cccc(C(F)(F)F)c2)C2=C(C(=O)CC2)C1c1ccc(C#N)cc1C(=O)NCc1ccccc1 (stereo not drawn)", 8.28),
    ("CN1C(=O)N(c2cccc(C(F)(F)F)c2)C2=C(C(=O)CC2)C1c1ccc(C#N)cc1-c1ccncc1 (stereo not drawn)", 9.00),
    ("CC(=O)N[C@H]1CCN(C(=O)c2cc(C#N)ccc2C2C3=C(CCC3=O)N(c3cccc(C(F)(F)F)c3)C(=O)N2C)C1 (stereo partly drawn)", 8.66),
]

Please give pIC50 for each item listed below.
1. CN1C(=O)N(c2ccnc(C(F)(F)F)c2)C2=C(C(=O)CC2)C1c1ccc(C#N)cc1C1=CCNCC1 (stereo not drawn)
2. CN1C(=O)N(c2cccc(C(F)(F)F)c2)C2=C(C(=O)CC2)C1c1ccc(C#N)cc1C(=O)NC1CCS(=O)(=O)C1 (stereo not drawn)
3. CN1CCN(C(=O)c2cc(C#N)ccc2[C@@H]2C3=C(CCC3=O)N(c3cccc(C(F)(F)F)c3)C(=O)N2C)CC1
4. CN1C(=O)N(c2cccc(C(F)(F)F)c2)C2=C(C(=O)CC2)C1c1ccc(C#N)cc1C(=O)NCc1ccccn1 (stereo not drawn)

1: 8.77; 2: 8.37; 3: 8.51; 4: 8.38

---

# Assay comment: Drug transport across human Caco-2 cells
# Assay type: in vitro ADME
# Test settings: apparent permeability coefficient, basal-to-apical (secretory), Caco-2 monolayers, pH 7.2, 37° C., read-out: PEBA
# note: exactly 90 ×10⁻⁶ cm/s is not below, so it is not met; use met for Papp B→A at 10 µM strictly under it

# Molecule, Cat
data = [
    ("CN1C(=O)N(c2cccc(C(F)(F)F)c2)C2=C(C(=O)CC2)[C@H]1c1ccc(C#N)cc1CNC1CCOCC1 [Example 25]", "not met"),
    ("CN1C(=O)N(c2cccc(C(F)(F)F)c2)C2=C(C(=O)CC2)[C@H]1c1ccc(C#N)cc1-c1ccc(=O)n(C)c1 [Example 23]", "met"),
    ("CNC(=O)c1cc(C#N)ccc1[C@@H]1C2=C(CCC2=O)N(c2cccc(C(F)(F)F)c2)C(=O)N1C [Example 2.1]", "met"),
]

Strictly below 90 ×10⁻⁶ cm/s in Papp B→A at 10 µM? CN1C(=O)N(c2cccc(C(F)(F)F)c2)C2=C(C(=O)CC2)[C@H]1c1ccc(C#N)cc1C(N)=O [Example 2]
met

Strictly below 90 ×10⁻⁶ cm/s in Papp B→A at 10 µM? CN1C(=O)N(c2cccc(C(F)(F)F)c2)C2=C(C(=O)CC2)C1c1ccc(C#N)cc1-c1ccncn1 (centres unmarked) [Example 22]
met

Strictly below 90 ×10⁻⁶ cm/s in Papp B→A at 10 µM? CN1C(=O)N(c2cccc(C(F)(F)F)c2)C2=C(C(=O)CCC2)C1c1ccc(C#N)cc1-c1ccn(C)c(=O)c1 (single isomer, unassigned) [Example 20.b]
not met

Strictly below 90 ×10⁻⁶ cm/s in Papp B→A at 10 µM? CN1C(=O)N(c2cccc(C(F)(F)F)c2)C2=C(C(=O)CC2)C1c1ccc(C#N)cc1-c1cncnc1 (centres unmarked) [Example 21]
met

Strictly below 90 ×10⁻⁶ cm/s in Papp B→A at 10 µM? Cc1nnc(-c2cc(C#N)ccc2C2C3=C(CCC3=O)N(c3cccc(C(F)(F)F)c3)C(=O)N2C)o1 (centres unmarked) [Example 13.1]
met

---

# Measurement target: Human neutrophil elastase (Homo sapiens (Human), UniProt P08246)
# Assay comment: Human Neutrophil Elastase Assay
# Test settings: substrate MeOSuc-Ala-Ala-Pro-Val-AMC 250 μM, pH 7.5
Provide the reported pIC50 of each item.
Numbers only, as −log10 of the molar value.

Please review the entries below; each comes with its answer.
# Compound, Measurement target, pIC50
data = [
    ("CC(C)N1CCN(C(=O)c2cc(C#N)ccc2C2C3=C(CCC3=O)N(c3cccc(C(F)(F)F)c3)C(=O)N2C)CC1 (stereo not drawn)", "Human neutrophil elastase (Homo sapiens (Human), UniProt P08246)", 8.14),
    ("CN1C(=O)N(c2cccc(C(F)(F)F)c2)C2=C(C(=O)CC2)C1c1ccc(C#N)cc1C(=O)NCc1nnnn1C (stereo not drawn)", "Human neutrophil elastase (Homo sapiens (Human), UniProt P08246)", 8.60),
    ("CN1C(=O)N(c2ccnc(C(F)(F)F)c2)C2=C(C(=O)CC2)C1c1ccc(C#N)cc1-c1ccn(C)c(=O)c1 (stereo not drawn)", "Human neutrophil elastase (Homo sapiens (Human), UniProt P08246)", 7.97),
    ("CN(C)CCNC(=O)c1cc(C#N)ccc1C1C2=C(CCC2=O)N(c2cccc(C(F)(F)F)c2)C(=O)N1C (stereo not drawn)", "Human neutrophil elastase (Homo sapiens (Human), UniProt P08246)", 8.32),
    ("CN1C(=O)N(c2cccc(C(F)(F)F)c2)C2=C(C(=O)CC2)C1c1ccc(C#N)cc1C(=O)NCc1ccno1 (stereo not drawn)", "Human neutrophil elastase (Homo sapiens (Human), UniProt P08246)", 8.72),
]

Please give pIC50 for each item listed below.
1. CN1C(=O)N(c2cccc(C(F)(F)F)c2)C2=C(C(=O)CC2)C1c1ccc(C#N)cc1C(=O)N1CC[C@@H](N)C1 (stereo partly drawn)
2. COCCNC(=O)c1cc(C#N)ccc1C1C2=C(CCC2=O)N(c2cccc(C(F)(F)F)c2)C(=O)N1C (stereo not drawn)
3. CN1C(=O)N(c2cccc(C(F)(F)F)c2)C2=C(C(=O)CC2)C1c1ccc(C#N)cc1C(=O)NCC(F)F (stereo not drawn)

[8.23, 8.19, 8.22]
